- experimental details: Cytotoxicity against HepG2 cells
- Type: cell-based
- condition label: human, HepG2 cells; read-out: Cytotoxicity HepG2 EC50
Reported EC50 values for a set of compounds
Expressed in µM, but write only the number.

[[record]]
chemical_string = "NCCSc1c(N)cc(C(F)(F)F)cc1NC(=O)c1cn(C2CC2)c2cc(N3CCNCC3)c(F)cc2c1=O"
value_type = "EC50"
unit_annotation = "µM"
readout_number = 154

[[record]]
chemical_string = "COc1cc(SCCN)c(C(F)(F)F)cc1NC(=O)c1cc(C(=O)Nc2cc(C(F)(F)F)c(SCCN)cc2OC)ncn1"
value_type = "EC50"
unit_annotation = "µM"
readout_number = 778

[[record]]
chemical_string = "N=C(N)NCCCCOc1cc(OCCCCNC(=N)N)c(C(F)(F)F)cc1NC(=O)c1cc(C(=O)Nc2cc(C(F)(F)F)c(OCCCCNC(=N)N)cc2OCCCCNC(=N)N)ncn1"
value_type = "EC50"
unit_annotation = "µM"
readout_number = 39


Now look at this entry.
Can you share its EC50? I mean this compound: N=C(N)NCCSc1cc(SCCNC(=N)N)c(C(F)(F)F)cc1NC(=O)c1cc(C(=O)Nc2cc(C(F)(F)F)c(SCCNC(=N)N)cc2SCCNC(=N)N)ncn1 57

====

- experimental details: in vitro
- Format: cell-based
value type: EC50

[[record]]
compound = "O=C(Nc1ccc(OC2CCNCC2)nc1)c1cc(C(=O)Nc2ccc(OC3CCNCC3)nc2)ncn1"
value_type = "EC50"
result = "> 1000 µg/mL"


Can you share its EC50? I mean this compound: COc1cc(SCCN)c(C(F)(F)F)cc1NC(=O)c1cc(C(=O)Nc2cc(C(F)(F)F)c(SCCN)cc2OC)ncn1 < 1 µg/mL

Can you share its EC50? I mean this compound: O=C(Nc1ccc(O[C@@H]2CCNC2)c(Cl)c1)c1cc(C(=O)Nc2ccc(O[C@@H]3CCNC3)c(Cl)c2)ncn1 176 µg/mL

Can you share its EC50? I mean this compound: N=C(N)NCCCCC(=O)Nc1cc(C(F)(F)F)cc(NC(=O)c2cc(C(=O)Nc3cc(C(F)(F)F)cc(NC(=O)CCCCNC(=N)N)c3SCCC(=O)O)ncn2)c1SCCC(=O)O > 1000 µg/mL

Can you share its EC50? I mean this compound: N=C(N)NCCCOc1cc(OCCCNC(=N)N)c(-c2ccncc2)cc1-c1ccncc1 > 1000 µg/mL

Can you share its EC50? I mean this compound: NC1CCC(N2CCc3ccc(NC(=O)c4cc(C(=O)Nc5ccc6c(c5)CCN(C5CCC(N)CC5)CC6)ncn4)cc3CC2)CC1 (stereo not drawn) > 1000 µg/mL

====

- experimental details: Cytotoxicity against 3T3 cells
- Type: cell-based
- condition label: mouse, 3T3 cells; read-out: Cytotoxicity 3T3 EC50
value type: EC50

[[record]]
chemical_string = "N#Cc1cc(NC(=O)c2cc(C(=O)Nc3ccc(O[C@@H]4CCNC4)c(C#N)c3)ncn2)ccc1O[C@@H]1CCNC1"
value_type = "EC50"
result = "> 1 mM"

[[record]]
chemical_string = "O=C(Nc1ccc(O[C@@H]2CCNC2)cc1)c1ccnc(C(=O)Nc2ccc(O[C@@H]3CCNC3)cc2)c1"
value_type = "EC50"
result = "> 1 mM"


Now look at this entry.
Can you share its EC50? I mean this molecule: COc1ccc(C(=O)Nc2cc(C(F)(F)F)cc(NC(=O)c3cc(C(=O)Nc4cc(C(F)(F)F)cc(NC(=O)c5ccc(OC)cc5)c4SCCN)ncn3)c2SCCN)cc1 > 1 mM

====

- experimental details: Cytotoxicity against 3T3 cells
- Type: cell-based
- condition label: mouse, 3T3 cells; read-out: Cytotoxicity 3T3 EC50
Reported EC50 values for a set of molecules

[[record]]
chemical_string = "N=C(N)NCCCCC(=O)Nc1ccc(Oc2cccc(Oc3ccc(NC(=O)CCCCNC(=N)N)cc3)c2)cc1"
result = "> 0.1 mM"

[[record]]
chemical_string = "O=C(Nc1ccc(OC2CCNCC2)nc1)c1cc(C(=O)Nc2ccc(OC3CCNCC3)nc2)ncn1"
result = "> 1 mM"

[[record]]
chemical_string = "CC(C)(C)c1cc(NC(=O)CCCCNS(C)(=O)=O)c(SCCNS(C)(=O)=O)c(NC(=O)c2cccc(C(=O)Nc3cc(C(C)(C)C)cc(NC(=O)CCCCNS(C)(=O)=O)c3SCCNS(C)(=O)=O)c2)c1"
result = "> 1 mM"

[[record]]
chemical_string = "N=C(N)NCCCCC(=O)Nc1cc(C(F)(F)F)cc(NC(=O)c2cc(C(=O)Nc3cc(C(F)(F)F)cc(NC(=O)CCCCNC(=N)N)c3SCCC(=O)O)ncn2)c1SCCC(=O)O"
result = "> 0.1 mM"

[[record]]
chemical_string = "Cn1c(-c2ccc(N3CCNCC3)cc2)cnc1-c1ccc(N2CCNCC2)cc1"
result = "> 1 mM"

[[record]]
chemical_string = "c1cc(N2CCNCC2)ccc1-c1ccc(-c2ccc(N3CCNCC3)cc2)s1"
result = "> 1 mM"


Can you share its EC50? I mean this molecule: N=C(N)NCCc1cccc(-c2cc(-c3cccc(CCNC(=N)N)c3)ncn2)c1 > 1 mM

====

Reported pIC50 values for a set of compounds
- Tested on: P. falciparum 3D7 (chloroquine-sensitive)
- experimental details: Anti-malarial activity, P. falciparum 3D7 culture, 72 hour, DNA content by flow cytometry
- Type: cell-based
- condition label: synchronized ring-stage parasites
The quantity pIC50 is defined as the negative base-10 logarithm of the molar concentration.

// worked examples, pIC50 included
[[record]]
compound = "N=C(N)NCCc1cccc(-c2ccc(-c3cccc(CCNC(=N)N)c3)s2)c1 [Compound 238]"
value_type = "pIC50"
readout_number = 6.96

[[record]]
compound = "CCN(CC)CCN(CCN)c1c(NC(=O)Nc2cc(C(F)(F)F)cc([N+](=O)[O-])c2N(CCN)CCN(CC)CC)cc(C(F)(F)F)cc1[N+](=O)[O-] [Compound 123]"
value_type = "pIC50"
readout_number = 6.80

[[record]]
compound = "N=C(N)NCCc1cccc(-c2ccc(-c3cccc(CCNC(=N)N)c3)o2)c1 [Compound 240]"
value_type = "pIC50"
readout_number = 6.92


Now look at this entry.
Can you share its pIC50? I mean this compound: N=C(N)NCCCc1cccc(-c2cc(-c3cccc(CCCNC(=N)N)c3)ncn2)c1 [Compound 135] 6.88

====

- experimental details: in vitro
- Format: cell-based
value type: EC50

// worked examples, EC50 included
[[record]]
compound = "N=C(N)NCCCc1cccc(-c2cncc(-c3cccc(CCCNC(=N)N)c3)c2)c1 [Compound 132]"
value_type = "EC50"
result = "> 1000 µg/mL"

[[record]]
compound = "O=C(Nc1ccc(O[C@@H]2CCNC2)cc1)c1cncc(C(=O)Nc2ccc(O[C@@H]3CCNC3)cc2)c1 [Compound 194]"
value_type = "EC50"
result = "> 1000 µg/mL"

[[record]]
compound = "N=C(N)NCCCCC(=O)Nc1ccc(-c2ccc(NC(=O)CCCCNC(=N)N)c(C(F)(F)F)c2)cc1C(F)(F)F [Compound 173]"
value_type = "EC50"
result = "> 1000 µg/mL"

[[record]]
compound = "O=C(Nc1ccc(O[C@@H]2CCNC2)cc1)c1ccnc(C(=O)Nc2ccc(O[C@@H]3CCNC3)cc2)c1 [Compound 195]"
value_type = "EC50"
result = "> 1000 µg/mL"


Now look at this entry.
Can you share its EC50? I mean this compound: NCCc1cccc(NC(=O)c2cccc(C(=O)Nc3cccc(CCN)c3)n2)c1 [Compound 191] > 1000 µg/mL

====

Reported pEC50 values for a set of molecules
- experimental details: Cytotoxicity against HepG2 cells
- Type: cell-based
- condition label: human, HepG2 cells; read-out: Cytotoxicity HepG2 EC50
pEC50: −log10 of the molar value.

Can you share its pEC50? I mean this molecule: NCCc1cccc(NC(=O)c2cccc(C(=O)Nc3cccc(CCN)c3)n2)c1 < 3.00

Can you share its pEC50? I mean this molecule: O=C(Nc1ccc(OC2CCNCC2)nc1)c1cc(C(=O)Nc2ccc(OC3CCNCC3)nc2)ncn1 < 3.00

Can you share its pEC50? I mean this molecule: NCCSc1ccc(C(F)(F)F)cc1C(=O)Nc1ccc(-c2ccc(NC(=O)c3cc(C(F)(F)F)ccc3SCCN)cc2)cc1 > 4.80

====

- experimental details: Cytotoxicity against 3T3 cells
- Assay type: cell-based
- condition label: mouse, 3T3 cells; read-out: Cytotoxicity 3T3 EC50
pEC50: −log10 of the molar value.
value type: pEC50

// worked examples, pEC50 included
[[record]]
compound = "Cn1c(-c2ccc(N3CCN(C(=N)N)CC3)cc2)cnc1-c1ccc(N2CCN(C(=N)N)CC2)cc1"
result = "< 3.00"

[[record]]
compound = "O=C(Nc1ccc(OC2CNC2)cc1)c1cc(C(=O)Nc2ccc(OC3CNC3)cc2)ncn1"
result = "< 3.00"


Now look at this entry.
Can you share its pEC50? I mean this compound: NC1CCC(N2CCc3ccc(NC(=O)c4cc(C(=O)Nc5ccc6c(c5)CCN(C5CCC(N)CC5)CC6)ncn4)cc3CC2)CC1 (stereo not drawn) < 3.00

src = patent US20150094294A1
